- SUBJECT OF TEST: T1, TWINKLE wt (lacks mitochondrial targeting sequence 1-42) (human, UniProt Q96RR1 43-684)
- T1 sequence: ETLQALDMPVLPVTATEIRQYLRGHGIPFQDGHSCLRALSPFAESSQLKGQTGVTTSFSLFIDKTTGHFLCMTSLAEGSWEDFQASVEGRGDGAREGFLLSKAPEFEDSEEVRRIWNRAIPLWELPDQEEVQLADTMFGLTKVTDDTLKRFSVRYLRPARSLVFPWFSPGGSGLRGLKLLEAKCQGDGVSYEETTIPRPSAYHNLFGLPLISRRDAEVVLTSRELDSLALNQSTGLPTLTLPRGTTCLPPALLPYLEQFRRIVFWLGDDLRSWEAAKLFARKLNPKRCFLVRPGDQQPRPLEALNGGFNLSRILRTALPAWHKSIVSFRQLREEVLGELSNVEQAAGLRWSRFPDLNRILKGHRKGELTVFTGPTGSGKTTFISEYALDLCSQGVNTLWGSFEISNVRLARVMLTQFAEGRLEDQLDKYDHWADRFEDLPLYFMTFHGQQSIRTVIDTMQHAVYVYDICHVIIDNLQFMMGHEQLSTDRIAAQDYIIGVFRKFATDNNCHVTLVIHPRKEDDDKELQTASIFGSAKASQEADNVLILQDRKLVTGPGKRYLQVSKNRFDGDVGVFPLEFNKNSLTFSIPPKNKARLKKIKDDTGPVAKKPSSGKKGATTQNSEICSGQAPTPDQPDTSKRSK
- ASSAY TEXT: EMSA
QUANTITY NAME: binding result

# BINDER, EXPERIMENTAL RESULT
rows = [
    ("ds45 (dsDNA) DNA 1: TGGCACGACAGGTTTCCCGACTGGAAAGCGGGCAGTCAGCTCTAG DNA 2: CTAGAGCTGACTGCCCGCTTTCCAGTCGGGAAACCTGTCGTGCCA", "binds"),
    ("TTTTTTTTTTTTTTTTTTTTTTTTTTTTTTTTTTTTTTTTTTTTT (ssDNA) [ss45 poly-dT]", "binds"),
    ("ds15 (dsDNA) DNA 1: CTCTAGACTCGACCG DNA 2: CGGTCGAGTCTAGAG", "binds"),
]
